PROTOCOL TEXT: chemical genetic growth profiling, strain panel (AID 1159580);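 also: tested at 20 µM; growth read once vehicle control cultures reached saturation at 30 °C; 1 = growth at the plate median or of vehicle wells; lower values mean less growth of the strain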
REPORTED CONDITIONS: S. cerevisiae deletion strains, growth OD, locus YIL073C, strain SPO22, hits give low values
About 2,000 (36%) of roughly 5,500 compounds were called active. Inconclusive results (about 18%) are left out. This is one part of the list.
Catalogue of normalized growth values
Lab note: jot down the number only; don't add units.

COC(=O)/C(=C1\OC(=O)C(c2ccccc2)=C1O)c1ccccc1 ... 1.05
NCCCCCCNS(=O)(=O)c1cccc2c(Cl)cccc12 ... 0.957
NCC(N)C(=O)c1ccccc1 (stereo not drawn) ... 0.986
O=C(OCc1ccccc1)c1ccccc1 ... 0.924
CO[C@H]1CC(O[C@@H]2/C(C)=C/C[C@@H]3C[C@@H](C[C@]4(CC[C@H](C)[C@@H](C5CCCCC5)O4)O3)OC(=O)[C@@H]3C=C(C)/C(=N\O)[C@H]4OC/C(=C\C=C\[C@@H]2C)[C@]43O)O[C@@H](C)C1O (stereo partly drawn) ... 0.801
CC(C)CC(NC(=O)OCC1c2ccccc2-c2ccccc21)C(=O)O (stereo not drawn) ... 1.03

// query normalized growth value for entry "NC(=O)NC(=O)Cc1ccccc1" 0.979

How about "CCN(CC)CCOC(=O)C1(C2CCCCC2)CCCCC1" ? 0.997

How about "COC(=O)c1c(C)c2c(c(C)c1O)OC(=O)c1c(C)c(Cl)c(O)c(Cl)c1O2" ? 0.976

How about CC(=O)OCC(=O)[C@@]1(O)[C@H](C)CC2C3CCC4=CC(=O)C=C[C@]4(C)[C@@]3(F)[C@@H](O)C[C@@]21C (stereo partly drawn) ? 0.99

How about CCN(CC)CCOC(=O)C(c1ccccc1)C1CCCCC1 (stereo not drawn) ? 0.958

How about "CC(C)=CCc1c2c(c3occ(-c4ccc(O)c(O)c4)c(=O)c3c1O)C=CC(C)(C)O2" ? 0.137

How about "CC(C)=CCc1c2c(c3occ(-c4ccc(O)cc4)c(=O)c3c1O)C=CC(C)(C)O2" ? 0.537
